- System: membrane-bound aminopeptidase activity in the CA3 (Rattus norvegicus, UniProt P15684)
- Sequence (P15684 2-965): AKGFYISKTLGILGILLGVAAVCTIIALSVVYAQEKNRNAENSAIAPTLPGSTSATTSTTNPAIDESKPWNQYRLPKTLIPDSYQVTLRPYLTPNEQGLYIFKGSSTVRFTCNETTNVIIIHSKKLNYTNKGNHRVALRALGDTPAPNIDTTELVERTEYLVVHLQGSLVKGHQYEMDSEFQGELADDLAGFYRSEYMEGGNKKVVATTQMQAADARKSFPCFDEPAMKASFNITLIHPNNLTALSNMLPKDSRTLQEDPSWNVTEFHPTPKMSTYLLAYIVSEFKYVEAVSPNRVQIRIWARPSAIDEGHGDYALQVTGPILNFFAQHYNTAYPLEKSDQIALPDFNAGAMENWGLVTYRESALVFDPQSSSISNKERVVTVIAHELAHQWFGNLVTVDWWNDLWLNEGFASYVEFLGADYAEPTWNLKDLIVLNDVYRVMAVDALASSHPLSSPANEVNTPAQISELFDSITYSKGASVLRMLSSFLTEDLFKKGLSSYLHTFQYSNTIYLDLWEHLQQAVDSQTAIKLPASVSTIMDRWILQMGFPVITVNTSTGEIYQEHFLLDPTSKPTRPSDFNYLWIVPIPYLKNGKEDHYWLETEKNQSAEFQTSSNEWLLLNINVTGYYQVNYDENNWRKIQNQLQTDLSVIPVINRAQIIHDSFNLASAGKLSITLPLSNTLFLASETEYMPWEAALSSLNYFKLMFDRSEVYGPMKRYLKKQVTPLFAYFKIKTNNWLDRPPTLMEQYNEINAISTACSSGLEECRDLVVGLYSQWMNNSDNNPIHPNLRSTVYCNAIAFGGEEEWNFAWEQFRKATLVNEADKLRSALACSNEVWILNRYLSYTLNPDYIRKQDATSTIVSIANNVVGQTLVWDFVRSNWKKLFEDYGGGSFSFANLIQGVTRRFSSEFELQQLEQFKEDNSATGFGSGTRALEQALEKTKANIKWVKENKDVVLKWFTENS
Reported endpoint: pKi
Entry type: numeric. Quantity: pKi, the -log10 of concentration in molar units.

stdin: Lab note: record pKi of CC(C)C[C@H](NC(=O)[C@@H](O)[C@H](N)Cc1ccccc1)C(=O)O [bestatin] tested on membrane-bound aminopeptidase activity in the CA3 (Rattus norvegicus, UniProt P15684).
stdout: 4.96
